Every entry's value here was drawn from patent US20230263822A1.

Assay: Liver function, ALT, AST, bilirubin in cynomolgus monkeys (Example 45)
Type: in vivo
Settings: plasma; day 64; escalating dose regimen
Experimental: Groups, each consisting of two male and three female monkeys, were injected subcutaneously with ISIS 416838, ISIS 416850, ISIS 416858, ISIS 416864, or ISIS 417002 in escalating doses. […] Body weights were measured weekly. […]
In plain terms, low ALT, meaning strictly below 50 IU/L, gives 1 (yes), and everything else gives 0 (no).

Would you please look over these solved cases?
[
  {
    "Substance": "ISIS 416850: MOE gapmer, nucleobases 1275 to 1318 of SEQ ID NO: 1 (Table 8) (antisense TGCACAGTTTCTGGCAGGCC; MOE gapmer, wing and gap sizes not given here)",
    "Class assignment": "0 (no)"
  },
  {
    "Substance": "ISIS 416864: MOE gapmer, nucleobases 1275 to 1318 of SEQ ID NO: 1 (Table 8) (antisense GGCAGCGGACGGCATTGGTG; MOE gapmer, wing and gap sizes not given here)",
    "Class assignment": "1 (yes)"
  },
  {
    "Substance": "ISIS 417002: MOE gapmer, nucleobases 1275 to 1318 of SEQ ID NO: 1 (Table 8) (antisense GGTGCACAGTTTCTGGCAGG; MOE gapmer, wing and gap sizes not given here)",
    "Class assignment": "1 (yes)"
  },
  {
    "Substance": "ISIS 416858: MOE gapmer, nucleobases 1275 to 1318 of SEQ ID NO: 1 (Table 8) (antisense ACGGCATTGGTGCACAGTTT; MOE gapmer, wing and gap sizes not given here)",
    "Class assignment": "1 (yes)"
  }
]

Request: Quick check: does ISIS 416838: MOE gapmer, nucleobases 1018 to 1042 of SEQ ID NO: 1 (Table 6) (antisense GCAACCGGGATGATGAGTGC; MOE gapmer, wing and gap sizes not given here) have ALT under 50 IU/L?
Result: 1 (yes)

----------
test system: human Factor 11 mRNA; assay: Antisense inhibition of human Factor 11 in HepG2 cells, lipofectin, 75 nM (Example 1); type: cell-based; details: 75 nM antisense oligonucleotide, ~24 h, relative to untreated control cells, gapmers targeted to SEQ ID NO: 1
Strand notation (5' to 3'): a small letter for the sugar, then the base; units joined by * are phosphorothioate-linked, units joined directly phosphodiester-linked; [ ] holds rarer units or linkages, { } end groups; capitals alone tell only the bases. e = 2'-O-(2-methoxyethyl) (MOE); [5mC] = 5-methylcytosine; d = 2'-deoxy (DNA)
Listed here: items and their measured % inhibition.

Here are 2 substances together with their reported answers.
[
  {
    "Substance": "412230 (antisense eG*eA*eT*eT*eT*dT*dG*dG*dT*dG*dG*dT*dA*d[5mC]*dA*e[5mC]*eT*e[5mC]*eA*eT) [compound 412230]",
    "% inhibition": "52%"
  },
  {
    "Substance": "413494 (antisense eG*eT*eG*eG*eT*dT*dT*d[5mC]*d[5mC]*dA*dG*dT*dT*dT*d[5mC]*eA*eA*e[5mC]*eA*eA) [compound 413494]",
    "% inhibition": "70%"
  }
]

Consider the record given below.
substance 412205 (antisense eG*eT*eT*eT*eA*dT*dG*d[5mC]*d[5mC]*d[5mC]*dT*dT*d[5mC]*dA*dT*eG*eT*e[5mC]*eT*eA) [compound 412205] , % inhibition observed: 69%

----------
assay: Hematology assays in cynomolgus monkeys (Example 45); format: in vivo; conditions: day 43; escalating dose regimen
Value kind: MCHC (g/dL)
API: value field is a number in g/dL; no unit string.

In the examples that follow, each entry is paired with its recorded MCHC.
[
  {
    "Substance": "ISIS 416850: MOE gapmer, nucleobases 1275 to 1318 of SEQ ID NO: 1 (Table 8) (antisense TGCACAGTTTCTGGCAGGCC; MOE gapmer, wing and gap sizes not given here)",
    "Quantitative result": 29
  },
  {
    "Substance": "ISIS 417002: MOE gapmer, nucleobases 1275 to 1318 of SEQ ID NO: 1 (Table 8) (antisense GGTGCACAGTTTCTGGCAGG; MOE gapmer, wing and gap sizes not given here)",
    "Quantitative result": 30
  },
  {
    "Substance": "ISIS 416858: MOE gapmer, nucleobases 1275 to 1318 of SEQ ID NO: 1 (Table 8) (antisense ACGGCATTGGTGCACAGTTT; MOE gapmer, wing and gap sizes not given here)",
    "Quantitative result": 31
  }
]

The reported value for ISIS 416864: MOE gapmer, nucleobases 1275 to 1318 of SEQ ID NO: 1 (Table 8) (antisense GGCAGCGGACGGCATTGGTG; MOE gapmer, wing and gap sizes not given here) in terms of MCHC is 29

The substance ISIS 416838: MOE gapmer, nucleobases 1018 to 1042 of SEQ ID NO: 1 (Table 6) (antisense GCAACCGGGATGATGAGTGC; MOE gapmer, wing and gap sizes not given here) showed MCHC equal to 30

----------
experiment: Tolerability in Sprague-Dawley rats: hematology assays (Example 35); details: 50 mg/kg s.c. twice per week for 6 weeks, title says % control
Value kind: MCV
# answer = number (no unit)

[
  {
    "Substance": "ISIS 416850: MOE gapmer, nucleobases 1275 to 1318 of SEQ ID NO: 1 (Table 8) (antisense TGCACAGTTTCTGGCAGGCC; MOE gapmer, wing and gap sizes not given here)",
    "MCV": 3
  }
]

Now look at this entry.
Recorded result, ISIS 416858: MOE gapmer, nucleobases 1275 to 1318 of SEQ ID NO: 1 (Table 8) (antisense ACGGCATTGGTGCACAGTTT; MOE gapmer, wing and gap sizes not given here) , MCV: 2

----------
conditions: rat, in vivo, sc, 50 mg/kg
e = 2'-O-(2-methoxyethyl) (MOE); d = 2'-deoxy (DNA)
Mark fulfilled for AST under 20 IU/L, not fulfilled if at or over.

The examples below pair each entry with its known result.
[
  {
    "Substance": "ISIS 416825: 5-10-5 MOE gapmer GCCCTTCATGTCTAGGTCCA (sugars from the 5' end e5 d10 e5, backbone and methylation of C not given here)",
    "Class assignment": "fulfilled"
  },
  {
    "Substance": "ISIS 417003: MOE gapmer, nucleobases 1275 to 1318 of SEQ ID NO: 1 (Table 8) (antisense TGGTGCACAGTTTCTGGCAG; MOE gapmer, wing and gap sizes not given here)",
    "Class assignment": "not fulfilled"
  },
  {
    "Substance": "ISIS 416892: 3-14-3 MOE gapmer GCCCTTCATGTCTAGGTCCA (sugars from the 5' end e3 d14 e3, backbone and methylation of C not given here)",
    "Class assignment": "not fulfilled"
  },
  {
    "Substance": "ISIS 416826: 5-10-5 MOE gapmer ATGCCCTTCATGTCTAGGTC (sugars from the 5' end e5 d10 e5, backbone and methylation of C not given here)",
    "Class assignment": "not fulfilled"
  }
]

Please turn your attention to the following entry.
Request: Determine if ISIS 416999: MOE gapmer, nucleobases 1275 to 1318 of SEQ ID NO: 1 (Table 8) (antisense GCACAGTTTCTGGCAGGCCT; MOE gapmer, wing and gap sizes not given here) shows AST strictly lower than 20 IU/L.
Result: not fulfilled

----------
assay: Hematology assays in cynomolgus monkeys (Example 46); assay type: in vivo; details: Day-5
Strand notation (5' to 3'): a small letter for the sugar, then the base; units joined by * are phosphorothioate-linked, units joined directly phosphodiester-linked; [ ] holds rarer units or linkages, { } end groups; capitals alone tell only the bases. e = 2'-O-(2-methoxyethyl) (MOE); [5mC] = 5-methylcytosine; d = 2'-deoxy (DNA)
Value kind: monocytes (%)
Write the number in % without appending the unit.

Here's what some known entries look like.
[
  {
    "Substance": "ISIS 445531: 5-8-5 or 6-8-6 MOE microwalk gapmer (Table 44) (antisense eG*eG*e[5mC]*eA*eT*dT*dG*dG*dT*dG*d[5mC]*dA*d[5mC]*eA*eG*eT*eT*eT)",
    "monocytes, %": 2.2
  },
  {
    "Substance": "ISIS 449708: 3-8-3, 4-8-4, 2-10-2, 3-10-3 or 4-10-4 MOE microwalk gapmer (Table 46) (antisense eA*e[5mC]*eA*dG*dT*dT*dT*d[5mC]*dT*dG*dG*e[5mC]*eA*eG)",
    "monocytes, %": 2.6
  },
  {
    "Substance": "ISIS 445522: 5-8-5 or 6-8-6 MOE microwalk gapmer (Table 44) (antisense eG*e[5mC]*eA*e[5mC]*eA*dG*dT*dT*dT*d[5mC]*dT*dG*dG*e[5mC]*eA*eG*eG*e[5mC])",
    "monocytes, %": 2.3
  },
  {
    "Substance": "ISIS 449710: 3-8-3, 4-8-4, 2-10-2, 3-10-3 or 4-10-4 MOE microwalk gapmer (Table 46) (antisense e[5mC]*eA*e[5mC]*dA*dG*dT*dT*dT*d[5mC]*dT*dG*dG*d[5mC]*eA*eG*eG)",
    "monocytes, %": 2.0
  },
  {
    "Substance": "ISIS 416858: MOE gapmer, nucleobases 1275 to 1318 of SEQ ID NO: 1 (Table 8) (antisense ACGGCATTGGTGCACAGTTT; MOE gapmer, wing and gap sizes not given here)",
    "monocytes, %": 2.7
  },
  {
    "Substance": "ISIS 416850: MOE gapmer, nucleobases 1275 to 1318 of SEQ ID NO: 1 (Table 8) (antisense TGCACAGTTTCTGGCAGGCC; MOE gapmer, wing and gap sizes not given here)",
    "monocytes, %": 2.9
  },
  {
    "Substance": "ISIS 449707: 3-8-3, 4-8-4, 2-10-2, 3-10-3 or 4-10-4 MOE microwalk gapmer (Table 46) (antisense e[5mC]*eA*e[5mC]*eA*dG*dT*dT*dT*d[5mC]*dT*dG*dG*e[5mC]*eA*eG*eG)",
    "monocytes, %": 2.3
  },
  {
    "Substance": "ISIS 449711: 3-8-3, 4-8-4, 2-10-2, 3-10-3 or 4-10-4 MOE microwalk gapmer (Table 46) (antisense eA*e[5mC]*dA*dG*dT*dT*dT*d[5mC]*dT*dG*dG*d[5mC]*eA*eG)",
    "monocytes, %": 2.3
  }
]

Let us move to another entry and its monocytes.
# monocytes (substance: ISIS 449709: 3-8-3, 4-8-4, 2-10-2, 3-10-3 or 4-10-4 MOE microwalk gapmer (Table 46) (antisense eG*e[5mC]*eA*e[5mC]*dA*dG*dT*dT*dT*d[5mC]*dT*dG*dG*d[5mC]*eA*eG*eG*e[5mC]) ) is 2.0
